B1: human RPB6 (residues 1–24), NTT peptide [human] / human TFIIH p62 PH domain (PH-D) (residues 1–108) [human] (parent complex)
chain 1: MSDNEDNFDGDDFDDVEEDEGLDD
chain 2: MATSSEEVLLIVKKVRQKKQDGALYLMAERIAWAPEGKDRFTISHMYADIKCQKISPEGKAKIQLQLVLHAGDTTNFHFSNESTAVKERDAVKDLLQQLLPKFKRKAN

Variants of: B1
ASSAY TEXT: ITC
pKd: −log10 of the molar value.
METRIC: pKd

Some entries whose results are on file:
chain 1 F8A | 5.55
chain 1 V16A | 5.15

I. chain 1 F13A, chain 1 V16A
II. chain 1 S2A
*Q* Among I and II , which shows a numerically higher pKd result? Mark your answer with the label of the selected entry.
*A* II
